Items are presented alongside their recorded inhibition at 0.1 µM.
TEST_SYSTEM: 12-lipoxygenase (Rattus norvegicus, UniProt F1LQ70)
Construct: the frozen platelet rich plasma was allowed to melt and then subjected to ultrasonic treatment in ice water so that an enzyme solution was obtained; from tissue; host or cells: rat platelets (washed, frozen, sonicated; crude enzyme solution)
Sequence (F1LQ70 whole entry): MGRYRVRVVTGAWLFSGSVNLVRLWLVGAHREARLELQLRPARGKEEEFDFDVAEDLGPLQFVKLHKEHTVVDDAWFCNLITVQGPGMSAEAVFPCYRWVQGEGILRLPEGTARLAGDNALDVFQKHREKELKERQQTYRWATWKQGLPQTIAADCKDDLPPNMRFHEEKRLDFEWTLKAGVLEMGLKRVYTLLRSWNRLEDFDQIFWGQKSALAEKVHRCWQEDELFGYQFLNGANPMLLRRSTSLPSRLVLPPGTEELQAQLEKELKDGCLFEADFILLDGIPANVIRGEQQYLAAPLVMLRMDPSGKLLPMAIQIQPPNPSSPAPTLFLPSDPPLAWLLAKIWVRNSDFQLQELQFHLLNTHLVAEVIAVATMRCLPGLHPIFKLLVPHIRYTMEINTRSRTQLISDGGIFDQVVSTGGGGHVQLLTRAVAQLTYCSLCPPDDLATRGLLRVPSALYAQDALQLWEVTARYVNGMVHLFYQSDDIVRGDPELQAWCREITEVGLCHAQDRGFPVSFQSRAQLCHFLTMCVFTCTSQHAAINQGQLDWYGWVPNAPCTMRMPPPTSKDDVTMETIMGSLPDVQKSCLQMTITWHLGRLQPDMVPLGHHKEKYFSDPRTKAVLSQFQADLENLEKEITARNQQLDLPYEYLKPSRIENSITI
EXPERIMENTAL_DETAILS: 12-Lipoxygenase Inhibition Activity (In Vitro), 12-HETE production by rat platelet enzyme solution
Type: biochemical
COND: 10^-7 M; [14C]-arachidonic acid; 5 min pre-incubation at 37° C., 5 min reaction; read-out: Inhibition rate (%) of 12-HETE production
RECORDED_METRIC: inhibition at 0.1 µM (%)

* CCOC(=O)Oc1ccc(C=C(C#N)C(=O)OCCc2ccccc2)cc1OC(=O)OCC | 52.9
* CCOC(=O)Oc1ccc(C=C(C#N)C(=O)OC(C)Cc2ccccc2)cc1OC(=O)OCC (centres unmarked) | 4.2
* N#CC(=Cc1ccc2oc(=O)oc2c1)C(=O)Oc1ccccc1 | 75.6
* CCC[C@@H](OC(=O)C(C#N)=Cc1ccc(OC(=O)OCC)c(OC(=O)OCC)c1)c1ccccc1 | 9.4
* N#CC(=Cc1ccc2oc(=O)oc2c1)C(=O)OCCc1cccs1 | 91.5
* CCOC(=O)Oc1cc(C=C(C#N)C(=O)OCCc2cccs2)ccc1O | 64.5
* CCCCCCCOC(=O)Oc1ccc(C=C(C#N)C(=O)OCCc2cccs2)cc1OC(=O)OCCCCCCC | 14
* CCOC(=O)Oc1cc(C=C(C#N)C(=O)OCCc2ccccc2)ccc1O | 59.3
* N#CC(=Cc1ccc2oc(=O)oc2c1)C(=O)OCCc1ccccc1 | 56.6
* CCOC(=O)Oc1ccc(C=C(C#N)C(=O)OCCc2ccsc2)cc1OC(=O)OCC | 38.7
* CCOC(=O)Oc1ccc(C=C(C#N)C(=O)OCCc2cccs2)cc1OC(=O)OCC | 65.8
* CCOC(=O)Oc1ccc(C=C(C#N)C(=O)OCC)cc1OC(=O)OCC | 60.3
* CCOC(=O)Oc1ccc(C=C(C#N)C(=O)OCCCc2ccccn2)cc1OC(=O)OCC | 16.3
* CCC[C@H](OC(=O)C(C#N)=Cc1ccc(OC(=O)OCC)c(OC(=O)OCC)c1)c1ccccc1 | 40.8
* CCOC(=O)Oc1cc(C=C(C#N)C(=O)OCCc2cccs2)cc(OC(=O)OCC)c1OC(=O)OCC | 25.1
* CC(C)COC(=O)Oc1ccc(C=C(C#N)C(=O)OCCc2cccs2)cc1OC(=O)OCC(C)C | 41.2

====

TEST_SYSTEM: 12-lipoxygenase (Rattus norvegicus)
Construct: the frozen platelet rich plasma was allowed to melt and then subjected to ultrasonic treatment in ice water so that an enzyme solution was obtained; from tissue; host or cells: rat platelets (washed, frozen, sonicated; crude enzyme solution)
EXPERIMENTAL_DETAILS: 12-Lipoxygenase Inhibition Activity (In Vitro), 12-HETE production by rat platelet enzyme solution
Type: biochemical
COND: 10^-7 M; [14C]-arachidonic acid; 5 min pre-incubation at 37° C., 5 min reaction; read-out: Inhibition rate (%) of 12-HETE production
RECORDED_METRIC: inhibition at 0.1 µM (%)

• CCOC(=O)Oc1ccc(C=C(C#N)C(=O)OCc2ccco2)cc1OC(=O)OCC [Compound 11] = 23.5
• COC(=O)Oc1ccc(C=C(C#N)C(=O)OCCc2cccs2)cc1OC(=O)OC [Compound 19] = 4.6
• CCOC(=O)Oc1ccc(C=C(C#N)C(=O)OCc2ccsc2)cc1OC(=O)OCC [Compound 14] = 34.6
